These entries and their values trace back to paper PMC6212790.

TARGET_OR_TEST_SYSTEM: GST-Rok-C97-191 (Bacillus subtilis subsp. subtilis str. …, UniProt O34857 97-191)
Sequence: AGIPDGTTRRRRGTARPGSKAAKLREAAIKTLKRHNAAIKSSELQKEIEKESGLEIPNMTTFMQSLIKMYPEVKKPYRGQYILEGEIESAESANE
METHOD: protein binding microarray; high values mean tight binding
PROTOCOL_CONDITIONS: protein: recombinant; tags: GST (pTH5325, pDEST15-Magic modified); dsDNA, one strand shown
The full ranking holds about 33,000 sequences; the median of “e-score” is about -0.038, and the highest 2% start at about 0.33. The sample as a whole holds a higher share of the highest values than the screen did.
In this section, each of the sequences is paired with its reported binding signal.
Kindly provide the numeric value in E-score only, without the unit symbol.

Sample answers from the record:
| SEQUENCE_RECORD | UOM | OBSERVED |
| --- | --- | --- |
| GTTGAAAA | E-score | -0.013 |
| GATATAGC | E-score | 0.0553 |
| AATATAGG | E-score | 0.0639 |
| AGGCACAT | E-score | -0.0618 |
| ATGATACG | E-score | 0.141 |

Give the reported binding signal for this sequence. `AATTTCGC`
0.151

Give the reported binding signal for this sequence. `ACTATAGG`
0.148

Give the reported binding signal for this sequence. `CATATAGC`
0.127

Give the reported binding signal for this sequence. `AATATAGC`
0.349

Give the reported binding signal for this sequence. `CCGCAAGA`
-0.109

Give the reported binding signal for this sequence. `AATATAGT`
0.337

---

TARGET_OR_TEST_SYSTEM: GST-Rok-C97-191 (Bacillus subtilis subsp. subtilis str. …, UniProt O34857 97-191)
Sequence: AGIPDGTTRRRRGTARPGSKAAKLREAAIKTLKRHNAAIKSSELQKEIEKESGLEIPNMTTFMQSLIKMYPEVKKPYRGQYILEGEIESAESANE
METHOD: protein binding microarray; high values mean tight binding
PROTOCOL_CONDITIONS: protein: recombinant; tags: GST (pTH5325, pDEST15-Magic modified); dsDNA, one strand shown
In all, about 33,000 sequences were measured (“e-score”: median about -0.038, highest 2% from about 0.33 on). Many of the other results were omitted from the sample, so the highest values are more common in it than they were.
In this section, each of the sequences is paired with its reported binding signal.
Kindly provide the numeric value in E-score only, without the unit symbol.

Lab note: GST-Rok-C97-191 (Bacillus subtilis subsp. subtilis str. …, UniProt O34857 97-191) assay, enter binding signal for `GAAACTTC` here
0.204

Lab note: GST-Rok-C97-191 (Bacillus subtilis subsp. subtilis str. …, UniProt O34857 97-191) assay, enter binding signal for `AGTGCACT` here
0.024

Lab note: GST-Rok-C97-191 (Bacillus subtilis subsp. subtilis str. …, UniProt O34857 97-191) assay, enter binding signal for `CAACGAAA` here
0.00998

Lab note: GST-Rok-C97-191 (Bacillus subtilis subsp. subtilis str. …, UniProt O34857 97-191) assay, enter binding signal for `CATCCATC` here
-0.0668

Lab note: GST-Rok-C97-191 (Bacillus subtilis subsp. subtilis str. …, UniProt O34857 97-191) assay, enter binding signal for `CTTCTACA` here
0.273

Lab note: GST-Rok-C97-191 (Bacillus subtilis subsp. subtilis str. …, UniProt O34857 97-191) assay, enter binding signal for `AGAGTGCG` here
-0.139

Lab note: GST-Rok-C97-191 (Bacillus subtilis subsp. subtilis str. …, UniProt O34857 97-191) assay, enter binding signal for `CTTCTATC` here
0.241

Lab note: GST-Rok-C97-191 (Bacillus subtilis subsp. subtilis str. …, UniProt O34857 97-191) assay, enter binding signal for `TAAAACAA` here
0.0349

Lab note: GST-Rok-C97-191 (Bacillus subtilis subsp. subtilis str. …, UniProt O34857 97-191) assay, enter binding signal for `CTGCTACC` here
-0.0872

Lab note: GST-Rok-C97-191 (Bacillus subtilis subsp. subtilis str. …, UniProt O34857 97-191) assay, enter binding signal for `AAACTCCG` here
0.115

Lab note: GST-Rok-C97-191 (Bacillus subtilis subsp. subtilis str. …, UniProt O34857 97-191) assay, enter binding signal for `AAGAAGTG` here
0.201

---

TARGET_OR_TEST_SYSTEM: GST-Rok-C97-191 (Bacillus subtilis subsp. subtilis str. …, UniProt O34857 97-191)
Sequence: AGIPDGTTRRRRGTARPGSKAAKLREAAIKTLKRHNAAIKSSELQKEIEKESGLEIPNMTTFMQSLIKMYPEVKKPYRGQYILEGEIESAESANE
METHOD: protein binding microarray; high values mean tight binding
PROTOCOL_CONDITIONS: protein: recombinant; tags: GST (pTH5325, pDEST15-Magic modified); dsDNA, one strand shown
Whole data set: some 33,000 sequences, median “e-score” near -0.038, cut for the highest 2% near 0.33. For the sample, the highest values were picked, then their nearest neighbours and some sequences at random.
In this section, each of the sequences is paired with its reported binding signal.

Sample answers from the record:
| SEQUENCE_RECORD | OBSERVED |
| --- | --- |
| GGAAAACA | -0.00212 E-score |
| GAGTACTA | 0.0418 E-score |
| AAGTACTG | 0.145 E-score |

Give the reported binding signal for this sequence. `AGAAACTC`
0.0994 E-score

---

TARGET_OR_TEST_SYSTEM: GST-Rok-C97-191 (Bacillus subtilis subsp. subtilis str. …, UniProt O34857 97-191)
Sequence: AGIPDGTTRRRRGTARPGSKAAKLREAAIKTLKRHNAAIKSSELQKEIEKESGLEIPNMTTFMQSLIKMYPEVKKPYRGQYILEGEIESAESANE
METHOD: protein binding microarray; high values mean tight binding
PROTOCOL_CONDITIONS: protein: recombinant; tags: GST (pTH5325, pDEST15-Magic modified); dsDNA, one strand shown
Whole data set: some 33,000 sequences, median “e-score” near -0.038, cut for the highest 2% near 0.33. The sample as a whole holds a higher share of the highest values than the screen did.
In this section, each of the sequences is paired with its reported binding signal.
Kindly provide the numeric value in E-score only, without the unit symbol.

Sample answers from the record:
| SEQUENCE_RECORD | OBSERVED |
| --- | --- |
| TGCGACAA | -0.0569 |
| AGACCTAG | 0.0543 |

Give the reported binding signal for this sequence. `AGTTTCCG`
0.112

Give the reported binding signal for this sequence. `AACTCTCT`
0.0603

Give the reported binding signal for this sequence. `ATAGTAAT`
0.396

Give the reported binding signal for this sequence. `GCGGTTAA`
0.123

Give the reported binding signal for this sequence. `CTTAGTTA`
0.189

Give the reported binding signal for this sequence. `ACCACTCG`
-0.181

Give the reported binding signal for this sequence. `GTAGTAAA`
0.338

---

TARGET_OR_TEST_SYSTEM: GST-Rok-C97-191 (Bacillus subtilis subsp. subtilis str. …, UniProt O34857 97-191)
Sequence: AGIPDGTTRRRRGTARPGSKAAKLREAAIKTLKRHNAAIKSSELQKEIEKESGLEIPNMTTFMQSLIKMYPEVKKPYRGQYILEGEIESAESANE
METHOD: protein binding microarray; Rok is a gene silencer of Bacillus subtilis; high values mean tight binding
PROTOCOL_CONDITIONS: protein: recombinant; tags: GST (pTH5325, pDEST15-Magic modified); dsDNA, one strand shown
Over roughly 33,000 sequences, “e-score” has its median near -0.038; the highest 2% begin near 0.33. The sample holds the highest values, similar sequences and a random draw of the others, so the mix is not that of the screen.
PARAMETER: binding signal

| SEQUENCE_RECORD | binding signal |
| --- | --- |
| AACTATAG | 0.327 E-score |
| ACACTACC | -0.0628 E-score |
| ACACCTGC | -0.197 E-score |

Give the reported binding signal for this sequence. `AAATATAG`
0.22 E-score

Give the reported binding signal for this sequence. `AACTATAC`
0.253 E-score

Give the reported binding signal for this sequence. `AAATATAC`
0.401 E-score

Give the reported binding signal for this sequence. `CTACTAGC`
0.256 E-score

Give the reported binding signal for this sequence. `GAATATAC`
0.293 E-score

Give the reported binding signal for this sequence. `AGAACTAA`
0.259 E-score

Give the reported binding signal for this sequence. `CTACCCGC`
-0.0513 E-score

Give the reported binding signal for this sequence. `CAATATAC`
0.243 E-score
